QUANTITY_MEASURED: Ki (nM)
Output spec: scalar in nM, unitless text.

Fill in Ki for CSc1cc2c(cc1S(N)(=O)=O)S(=O)(=O)NCN2 tested with Carbonic anhydrase 2 (Homo sapiens).
3800

Fill in Ki for Cc1cc(S(N)(=O)=O)c(S(=O)(=O)C(C)C(=O)O)cc1Cl (centres undefined) tested with Carbonic anhydrase 2 (Homo sapiens).
806

Fill in Ki for NS(=O)(=O)c1cc(C(=O)N2CCCC2)c(Cl)cc1S tested with Carbonic anhydrase 2 (Homo sapiens).
19.6

---

Can you tell me Ki for the items I'm about to list?
- SYSTEM_NAME: Carbonic anhydrase 2 (Homo sapiens)
Output spec: scalar in nM, unitless text.

# return recorded Ki for entry Cc1cc(S(N)(=O)=O)c(S(=O)(=O)CC(=O)NN)cc1Cl
9.2

# return recorded Ki for entry NS(=O)(=O)c1cc(C(=O)N2CCCC2)c(Cl)cc1SSc1cc(Cl)c(C(=O)N2CCCC2)cc1S(N)(=O)=O
4620

# return recorded Ki for entry COC(=O)CS(=O)(=O)c1cc(Cl)c(C)cc1S(N)(=O)=O
9.6

# return recorded Ki for entry NS(=O)(=O)c1cc(C(=O)NCc2ccccc2)c(Cl)cc1SSc1cc(Cl)c(C(=O)NCc2ccccc2)cc1S(N)(=O)=O
6100

# return recorded Ki for entry Cc1cc(S(N)(=O)=O)c(S(=O)(=O)C(C)C(=O)NN)cc1Cl (centres undefined)
536

# return recorded Ki for entry Cc1cc(S(N)(=O)=O)c(S(=O)(=O)CC(=O)O)cc1Cl
547

# return recorded Ki for entry COC(=O)C(C)S(=O)(=O)c1cc(Cl)c(C)cc1S(N)(=O)=O (centres undefined)
244
